Tested on: tetrabenazine-induced depression
Test: prevention of tetrabenazine-induced sedation and depression in mice (exploratory activity and ptosis)
Type: in vivo, Carworth CF1 S female mice
Conditions: Table I, orally, 1 hour post-drug, tetrabenazine 32 mg/kg i.p. 30 min after drug, relief from ptosis, 60 min
Where a name gives a salt, the structure may show the parent alone.
Examples of molecules with documented ED50 Ptosis follow.
VALUE TYPE: ED50 Ptosis (mg/kg)

>>> measured_number("CN(C)CCOC12c3ccccc3C3C(c4ccccc41)N32 (centres unmarked) [CH2 CH2 N(CH3)2 . Maleate]")
8
>>> measured_number("CN(C)CCOC12c3ccccc3C3C(c4ccccc41)N32 (centres unmarked) [CH2 CH2 N(CH3)2]")
2
>>> measured_number("NCCOC12c3ccccc3C3C(c4ccccc41)N32 (centres unmarked) [CH2 CH2 NH2 . Maleate]")
10.3
>>> measured_number("NCCOC12c3ccccc3C3C(c4ccccc41)N32 (centres unmarked) [CH2 CH2 NH2]")
1
>>> measured_number("NCCOC12c3ccccc3C3C(c4ccccc41)N32 (centres unmarked) [CH2 CH2 NH2 . Tartate]")
2.7

The origin of these recorded values is patent US4123546A.
